Reference source for all entries: PubChem BioAssay

Assay: small molecules captured by biotinylated probe aFGF2 – biochemical, small-molecule microarray, fluorescence 635/667, stem cell growth factor project, primary screen (AID 1067);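 note: measures binding of biotinylated aFGF2 protein to printed compounds on slides; z-score merges feature fluorescence and signal-to-noise across triplicate slides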
Conditions: higher = more signal
Assign True to entries whose composite z-score meets or exceeds -0.05; assign False to the rest.

IN: Test whether the molecule "C=CCNC(=O)[C@@H]1[C@H]2C(=O)O[C@H](c3ccccc3)[C@H](c3ccccc3)N2[C@H](c2ccc(O)cc2)[C@@]12C(=O)Nc1ccc(C#CCCO)cc12" records composite z-score of -0.05 or higher.
OUT: False

IN: Test whether the molecule "COC(=O)C(CC#Cc1ccc2c(c1)[C@]1(C(=O)N2)[C@H](c2ccc(O)cc2)N2[C@H](c3ccccc3)[C@H](c3ccccc3)OC(=O)[C@H]2[C@@H]1C(=O)O)C(=O)OC" records composite z-score of -0.05 or higher.
OUT: False

IN: Test whether the molecule "C=CCN1C(=O)[C@@]2(O[C@@H](CCO)[C@H]([Si](C)(C)c3ccc(OC)cc3)[C@H]2C)c2cc(NC(=O)[C@H](C)O)ccc21" records composite z-score of -0.05 or higher.
OUT: True

IN: Test whether the molecule "CN(C)C(=O)[C@@]1(CCC(=O)OC(C)(C)C)COC(c2ccc(OCCCO)cc2)=N1" records composite z-score of -0.05 or higher.
OUT: False

IN: Test whether the molecule "[N-]=[N+]=NCc1ccccc1[C@H]1OC(c2ccc(OCCCO)cc2)=N[C@@]1(Cc1ccccc1)C(N)=O" records composite z-score of -0.05 or higher.
OUT: True

====

Assay: FRG1 expression reporter modulators in myotubes – cell-based, C2C12 myotubes, firefly/Renilla luciferase, luminescence, FRG1 inhibition for FSHD, primary screen (AID 1084)
Settings: FRG1 promoter luciferase, higher = more signal, called active from +8 up or from −8 down
The source made the active and inactive calls.
MEASURED_PARAMETER: z-score

Kindly note the recorded z-score for CC(C)C[C@@H]1NC(=O)[C@@]23C(=O)N[C@@H](Cc4ccccc4)C2[C@H](C)[C@@]2(C)O[C@H]2C3/C=C/C/C=C\CNC(=O)[C@@H]2CCCN2C1=O (stereo partly drawn) , which is 2.09 (inactive)

Kindly note the recorded z-score for C=CCC(OC(C)=O)[C@@H]1[C@@H](N(Cc2ccc(-c3ccccc3)cc2)C(=O)Cc2ccc(OC)cc2)c2cc(OCCCO)ccc2N1C(=O)c1ccc(-c2ccccc2)cc1 (stereo partly drawn) , which is -1.24 (inactive)

Kindly note the recorded z-score for "COC(=O)C(CC#Cc1ccc2c(c1)[C@]1(C(=O)N2)[C@H](c2ccccc2OCCO)N2[C@H](c3ccccc3)[C@H](c3ccccc3)OC(=O)[C@H]2[C@@H]1C(=O)Nc1nc2ccccc2s1)C(=O)OC" , which is 1.94 (inactive)

====

Experiment: hepatitis C replication reporter changes, two-sided – Huh7 cells, luciferase reporter, HCV replication inhibitor project, primary screen (AID 1109);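 note: huh7 hepatoma cells harbouring a luciferase neomycin HCV replicon reporter; luciferase luminescence as measure of HCV replicon replication; test concentration not given here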
Conditions: Huh7 HCV replicon luciferase reporter, 48 h; higher = more signal
MEASURED_PARAMETER: z-score
Lab note: jot the number down without any unit.

Kindly note the recorded z-score for "C=CCOC(=O)[C@@H]1[C@H]2C(=O)O[C@H](c3ccccc3)[C@H](c3ccccc3)N2[C@H](c2ccc(OCCOC(=O)[C@@H]3C[C@@H]4C(=O)N5CCC[C@H]5C(=O)N4[C@@H]3c3cccc(OCCO)c3)cc2)[C@@]12C(=O)Nc1ccc(I)cc12" , which is -1.01

Kindly note the recorded z-score for Cc1ccccc1C(O)C1C=CC2C(=O)N(Cc3ccccc3)C(=O)C2N1n1cnnc1 (stereo not drawn) , which is -0.364

Kindly note the recorded z-score for C[C@H]1NC(=O)C([C@@H](C)OCc2ccccc2)NC(=O)[C@@]23C(=O)N[C@@H](Cc4ccccc4)C2[C@H](C)[C@@]2(C)O[C@H]2C3/C=C/CC/C=C/CNC1=O (stereo partly drawn) , which is -0.631

====

Target: Pro-neuregulin-1, membrane-bound isoform (Homo sapiens) (UniProt Q02297)
Sequence (Q02297 whole entry, looked up, canonical isoform): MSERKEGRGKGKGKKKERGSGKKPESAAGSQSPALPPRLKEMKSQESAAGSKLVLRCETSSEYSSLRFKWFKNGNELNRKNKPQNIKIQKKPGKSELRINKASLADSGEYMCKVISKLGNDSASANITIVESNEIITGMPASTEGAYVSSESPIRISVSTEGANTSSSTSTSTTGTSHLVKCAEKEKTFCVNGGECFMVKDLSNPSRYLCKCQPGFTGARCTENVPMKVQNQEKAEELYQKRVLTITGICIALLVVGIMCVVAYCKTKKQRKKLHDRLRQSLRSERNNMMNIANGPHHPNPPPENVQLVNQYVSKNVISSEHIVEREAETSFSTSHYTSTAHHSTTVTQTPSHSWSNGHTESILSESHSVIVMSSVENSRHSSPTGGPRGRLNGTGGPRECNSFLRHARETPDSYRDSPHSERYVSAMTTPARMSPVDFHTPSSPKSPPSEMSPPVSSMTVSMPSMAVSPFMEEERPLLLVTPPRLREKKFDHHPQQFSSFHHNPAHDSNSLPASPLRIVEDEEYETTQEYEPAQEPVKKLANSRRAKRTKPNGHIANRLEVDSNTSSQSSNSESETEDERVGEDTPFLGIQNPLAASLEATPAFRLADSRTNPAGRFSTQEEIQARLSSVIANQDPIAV
Experiment: small molecules binding neuregulin-1 protein – biochemical, small-molecule microarray, fluorescence 635/667, psychiatric disease protein project, primary screen (AID 1075);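 note: score combines 667 nm spot fluorescence with signal to noise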
Settings: NRG1 binding, 635 nm fluorescence, higher = more signal
MEASURED_PARAMETER: composite z-score
Lab note: jot the number down without any unit.

Kindly note the recorded composite z-score for "C=CCN1C(=O)[C@@]2(O[C@@H](CCO)[C@H]([Si](C)(C)c3ccc(OC)cc3)[C@H]2C)c2cc(NC(=O)[C@H](C)O)ccc21" , which is 0.915

Kindly note the recorded composite z-score for "O=C1N(Cc2ccccc2)c2ccccc2[C@H]2OC(c3ccc(OCCCO)cc3)=N[C@@]12CCS(=O)(=O)c1ccccc1" , which is 1.76

Kindly note the recorded composite z-score for "O=C(CS)NCCCCCNC(=O)[C@@H]1C[C@@H]2C(=O)N3CCC[C@H]3C(=O)N2[C@@H]1c1ccc(O)cc1" , which is 0.33

Kindly note the recorded composite z-score for "CO[C@H]1O[C@H](CO)[C@@H](OC(=O)Nc2ccc(C(F)(F)F)cc2)[C@H](OC(=O)Nc2ccccc2)[C@H]1OC(=O)Nc1ccccc1" , which is 1.72

Kindly note the recorded composite z-score for "COc1ccc(C(=O)Nc2ccc(CN3C(=O)[C@@]4(O[C@@H](CC(=O)N5Cc6ccccc6C[C@H]5CO)[C@H]([Si](C)(C)c5ccc(OC)cc5)[C@H]4C)c4ccccc43)cc2)cc1" , which is 0.822

Kindly note the recorded composite z-score for "COC(=O)[C@@]1(Cc2ccc(F)cc2)[C@H]2c3cc(C(=O)N(C)C)n(Cc4ccc(C)c(F)c4F)c3C[C@H]2CN1C(=O)c1ccccc1" , which is 1.71

Kindly note the recorded composite z-score for CC(C)CCC[C@@H](C)[C@H]1CC[C@@]2(C)C3=C(CC[C@]12C)[C@@]1(C)CC[C@H](OC(=O)C(C)(C)C)C(C)(C)C1CC3 (some centres undefined) , which is -0.036

Kindly note the recorded composite z-score for "CN(C)CCCNC(=O)[C@@]1(Cc2ccccc2I)c2ccccc2C(=O)N(Cc2ccccc2Cl)[C@H]1c1ccc(CO)cc1" , which is 1.47

Kindly note the recorded composite z-score for "O=C(O)[C@]1(CCS(=O)(=O)c2ccccc2)N=C(c2ccc(OCCCO)cc2)O[C@@H]1c1ccccc1" , which is 1.13

Kindly note the recorded composite z-score for "CC(C)NC(=O)[C@@H]1c2ccccc2C(=O)N(Cc2cc(C(F)(F)F)cc(C(F)(F)F)c2)[C@H]1c1ccc(CO)cc1" , which is 0.104

Kindly note the recorded composite z-score for CC(C)CCC[C@@H](C)[C@H]1CC[C@@]2(C)C3=C(CC[C@]12C)[C@@]1(C)CC[C@H](OC(=O)c2ccc(N)cc2)C(C)(C)C1CC3 (some centres undefined) , which is -0.0202

Kindly note the recorded composite z-score for "CN(C)C(=O)[C@@]1(CCC(=O)OC(C)(C)C)N=C(c2ccc(OCCCO)cc2)O[C@H]1c1ccccc1N=[N+]=[N-]" , which is 1.96

Kindly note the recorded composite z-score for "COC(=O)c1c(CC[C@@H](CO)NC(=O)N[C@@H](C)Cn2cc(C3(O)CCCC3)nn2)oc(C(C)=O)c1C(=O)OC" , which is 0.974

Kindly note the recorded composite z-score for CC(C)N1CC=CC23O[C@@H]4C=CCOC(=O)[C@@H]4[C@H]2C(=O)N(CCCCCCO)[C@@H]3C1=O (some centres undefined) , which is -0.126

====

Assay: growth effects on S. cerevisiae YJM789 – YJM789 clinical isolate, OD600, 24 h, basal, primary screen (AID 1089);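 note: growth of clinical yeast isolate S. cerevisiae YJM 789 seeded 1000 cells per well; test concentration not given here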
Settings: higher = more signal, called active from +8 up or from −8 down
Assign Fulfilled to entries whose z-score meets or exceeds 0.6; assign Not fulfilled to the rest.

IN: Test whether the compound CC1(C)[C@@H]2CC(C(O)C3C=CC4C(=O)N(c5ccccc5)C(=O)C4N3Nc3ccccc3F)=C[C@@H]1C2 (some centres not stated) records z-score of 0.6 or higher.
OUT: Not fulfilled

IN: Test whether the compound "C=CCN1C(=O)[C@@]2(O[C@@H](CCO)[C@H]([Si](C)(C)c3ccc(OC)cc3)[C@H]2C)c2cc(NC(=O)[C@H](C)O)ccc21" records z-score of 0.6 or higher.
OUT: Fulfilled

IN: Test whether the compound "CCCC[C@@H](O)C1=C(COc2ccccc2)Cn2c(=O)n(-c3ccccc3)c(=O)n2[C@H]1CO" records z-score of 0.6 or higher.
OUT: Not fulfilled

IN: Test whether the compound "C=CCN1C(=O)[C@@]2(O[C@@H](CCn3cc([C@H](O)c4ccccc4)nn3)[C@H]([Si](C)(C)c3ccc(OC)cc3)[C@H]2C)c2cc(NC(=O)c3ccc(OC)cc3)ccc21" records z-score of 0.6 or higher.
OUT: Fulfilled

IN: Test whether the compound "[N-]=[N+]=NCc1ccccc1[C@H]1OC(c2ccc(OCCCO)cc2)=N[C@@]1(Cc1ccccc1N=[N+]=[N-])C(=O)NCCN1CCOCC1" records z-score of 0.6 or higher.
OUT: Not fulfilled

IN: Test whether the compound "COCCOC(=O)N1C(=O)[C@@]2(c3cc(C#Cc4ccc(OC)cc4)ccc31)[C@H](C(N)=O)[C@H]1C(=O)O[C@H](c3ccccc3)[C@H](c3ccccc3)N1[C@@H]2c1ccc(OCCO)cc1" records z-score of 0.6 or higher.
OUT: Fulfilled

IN: Test whether the compound "O=C(Nc1cc(Br)ccc1C(=O)NCc1cccc(O)c1)c1ccccc1" records z-score of 0.6 or higher.
OUT: Fulfilled

IN: Test whether the compound "NCCCCCCNC(=O)[C@H]1C[C@H]2C(=O)N3CCC[C@H]3C(=O)N2[C@H]1c1ccc(O)cc1" records z-score of 0.6 or higher.
OUT: Not fulfilled

IN: Test whether the compound "CN(C)CCCCCCNC(=O)[C@@H]1C[C@@H]2C(=O)NCC(=O)N2[C@@H]1c1ccc(O)cc1" records z-score of 0.6 or higher.
OUT: Not fulfilled

IN: Test whether the compound CC(C)(C)N1CC=CC23O[C@@H]4C=CCCOC(=O)C4[C@H]2C(=O)N(CCCO)[C@@H]3C1=O (some centres not stated) records z-score of 0.6 or higher.
OUT: Not fulfilled

IN: Test whether the compound "COC(=O)[C@@]1(Cc2ccc(OC)cc2)[C@H]2c3cc(C(=O)N4CCCC4)n(Cc4ccc(C)o4)c3C[C@H]2CN1C(=O)c1ccccc1" records z-score of 0.6 or higher.
OUT: Not fulfilled

IN: Test whether the compound O=C1OCC=C[C@H]2OC34C=CCN(CCN5CCOCC5)C(=O)[C@H]3N(CCCCCO)C(=O)[C@@H]4[C@@H]12 (some centres not stated) records z-score of 0.6 or higher.
OUT: Not fulfilled

IN: Test whether the compound "CN(C)C(=O)[C@@]1(CCS(=O)(=O)c2ccccc2)N=C(c2ccc(OCCCO)cc2)O[C@H]1c1ccccc1CN=[N+]=[N-]" records z-score of 0.6 or higher.
OUT: Not fulfilled

IN: Test whether the compound "OCc1ccc(-c2cc[n+](Cc3cccc(OC(F)(F)F)c3)cc2)cc1" records z-score of 0.6 or higher.
OUT: Not fulfilled

IN: Test whether the compound "C[C@@H]1ON(c2ccccc2)[C@H](c2ccccc2)[C@H]1C(=O)N1C(=O)OC[C@H]1Cc1ccccc1" records z-score of 0.6 or higher.
OUT: Fulfilled

IN: Test whether the compound "CC(C)(C)OC(=O)CC[C@]1(C(=O)O)COC(c2ccc(OCCCO)cc2)=N1" records z-score of 0.6 or higher.
OUT: Fulfilled

IN: Test whether the compound "COC(=O)[C@H]1N=C(c2ccc(OCCCO)cc2)O[C@H]1c1ccccc1CN=[N+]=[N-]" records z-score of 0.6 or higher.
OUT: Not fulfilled

IN: Test whether the compound "COC(=O)C(CC#Cc1ccc2c(c1)[C@]1(C(=O)N2)[C@H](c2ccc(O)cc2)N2[C@H](c3ccccc3)[C@H](c3ccccc3)OC(=O)[C@H]2[C@@H]1C(=O)O)C(=O)OC" records z-score of 0.6 or higher.
OUT: Fulfilled

IN: Test whether the compound "COc1ccc(C#Cc2ccc3c(c2)[C@]2(C(=O)N3)[C@H](C(=O)O)[C@H]3C(=O)O[C@H](c4ccccc4)[C@H](c4ccccc4)N3[C@@H]2c2ccc(OCCO)cc2)cc1" records z-score of 0.6 or higher.
OUT: Fulfilled

IN: Test whether the compound "COC(=O)[C@@]1(Cc2ccc(F)cc2)[C@H]2c3cc(C(=O)N(C)C)n(Cc4ccc(C)c(F)c4F)c3C[C@H]2CN1C(=O)c1ccccc1" records z-score of 0.6 or higher.
OUT: Not fulfilled

IN: Test whether the compound "COCCOC(=O)N1C(=O)[C@@]2(c3ccccc31)[C@H](c1ccc(OCCO)cc1)N1[C@H](c3ccccc3)[C@H](c3ccccc3)OC(=O)[C@H]1[C@@H]2C(=O)NC[C@H](O)c1ccccc1" records z-score of 0.6 or higher.
OUT: Fulfilled

IN: Test whether the compound "COCCOC(=O)N1C(=O)[C@@]2(c3cc(C#CCC(C(=O)OC)C(=O)OC)ccc31)[C@H](c1ccc(OCCO)cc1)N1[C@H](c3ccccc3)[C@H](c3ccccc3)OC(=O)[C@H]1[C@@H]2C(N)=O" records z-score of 0.6 or higher.
OUT: Fulfilled

IN: Test whether the compound "COCCCNC(=O)[C@@H]1c2ccccc2C(=O)N(c2ccc(C)cn2)[C@H]1c1ccc(CO)cc1" records z-score of 0.6 or higher.
OUT: Not fulfilled

IN: Test whether the compound "COC(=O)[C@]1(Cc2ccccc2CN=[N+]=[N-])N=C(c2ccc(OCCCO)cc2)O[C@@H]1c1ccccc1" records z-score of 0.6 or higher.
OUT: Fulfilled

IN: Test whether the compound "COc1cccc(C)c1NC(=O)O[C@H]1[C@H](OC(=O)Nc2ccccc2)[C@H](OC(=O)Nc2ccccc2)[C@@H](OC)O[C@@H]1CO" records z-score of 0.6 or higher.
OUT: Not fulfilled

IN: Test whether the compound "COc1cccc(C[C@H]2C[C@@H](CO[Si](C(C)C)(C(C)C)C(C)C)N3C(=O)[C@]4(C(C)=O)O[C@]23[C@H]2C(=O)N(C)C(=O)[C@H]24)c1" records z-score of 0.6 or higher.
OUT: Not fulfilled
